Test system: HCI-010 (organoid from a breast cancer xenograft)
Experiment: CTG-3D luminescence at 96 h relative to day-0 seeding control (ratio to day 0); higher = more growth / less cytotoxicity; PDxO 3D drug screen, 96 h, CTG-3D normalised to day-0 seeding control.
Settings: 0.1 µM; days in culture: 103
In this section we review reported CTG-3D luminescence at 96 h values for a set of molecules.
Lab note: record the figure alone, no unit after it.

Below, 4 molecules whose answers are already recorded.
molecule	CTG-3D luminescence at 96 h
C[C@H](NC(=O)CCC(F)(F)F)C(=O)N[C@@H]1C(=O)N(CCO)c2ncccc2-c2ccccc21 [crenigacestat]	3.15
C/C=C1\NC(=O)[C@H]2CSSCC/C=C/[C@H](CC(=O)N[C@H](C(C)C)C(=O)N2)OC(=O)[C@H](C(C)C)NC1=O [romidepsin]	0.316
NC(=O)Nc1cc(-c2cccc(F)c2)sc1C(=O)N[C@H]1CCCNC1 [AZD7762]	1.23
CC(C)(C(=O)NCC(F)(F)C(F)(F)F)C(=O)N[C@@H]1C(=O)Nc2ccccc2-c2ccccc21	2.95

**Q:** So what does the record say about CTG-3D luminescence at 96 h for Cc1nc(-c2cn3c(n2)-c2ccc(-c4cnn(C(C)(C)C(N)=O)c4)cc2OCC3)n(C(C)C)n1 [taselisib] ?
**A:** 3.46

**Q:** What does the record list as CTG-3D luminescence at 96 h for O=C(c1ccc(F)c(F)c1Nc1ccc(I)cc1F)N1CC(O)([C@@H]2CCCCN2)C1 [cobimetinib] ?
**A:** 3.21

**Q:** Need CTG-3D luminescence at 96 h, item COc1cc2c(Oc3ccc4[nH]c(C)cc4c3F)ncnc2cc1OCCCN1CCCC1 [cediranib]
**A:** 3.43

**Q:** Fill in the blank: the reported CTG-3D luminescence at 96 h of CC1(C)CCC(c2ccc(Cl)cc2)=C(CN2CCN(c3ccc(C(=O)NS(=O)(=O)c4ccc(N[C@H](CCN5CCOCC5)CSc5ccccc5)c(S(=O)(=O)C(F)(F)F)c4)cc3)CC2)C1 [navitoclax] is ____.
**A:** 1.08

====

System: HCI-023 (organoid from a triple-negative breast cancer xenograft)
Assay: CTG-3D luminescence at 96 h relative to day-0 seeding control (ratio to day 0); higher = more growth / less cytotoxicity; PDxO 3D drug screen (set 2), 96 h, CTG-3D normalised to day-0 seeding control.
Details: 0.00025 µM; days in culture: 223
readout.name: CTG-3D luminescence at 96 h
Respond with the number and no other words.

Sample records with CTG-3D luminescence at 96 h:
Nc1cc(C(F)(F)F)c(-c2cc(N3CCOCC3)nc(N3CCOCC3)n2)cn1 2.58
CO[C@H]1C[C@@H]2CC[C@@H](C)[C@@](O)(O2)C(=O)C(=O)N2CCCC[C@H]2C(=O)O[C@H]([C@H](C)C[C@@H]2CC[C@@H](O)[C@H](OC)C2)CC(=O)[C@H](C)/C=C(\C)[C@@H](O)[C@@H](OC)C(=O)[C@H](C)C[C@H](C)/C=C/C=C/C=C/1C 1.63
CC(=O)O[C@@]12CO[C@@H]1C[C@H](O)[C@@]1(C)C(=O)[C@H](O)C3=C(C)[C@@H](OC(=O)[C@H](O)[C@@H](NC(=O)OC(C)(C)C)c4ccccc4)C[C@@](O)([C@@H](OC(=O)c4ccccc4)[C@H]21)C3(C)C 0.731

**Q:** For CO[C@H]1C[C@@H]2CC[C@@H](C)[C@@](O)(O2)C(=O)C(=O)N2CCCC[C@H]2C(=O)O[C@H]([C@H](C)C[C@@H]2CC[C@@H](OCCO)[C@H](OC)C2)CC(=O)[C@H](C)/C=C(\C)[C@@H](O)[C@@H](OC)C(=O)[C@H](C)C[C@H](C)/C=C/C=C/C=C/1C , what is its reported CTG-3D luminescence at 96 h?
**A:** 1.82
